System: CEM cells HIV-1 protection, formazan growth assay
Assay: NCI AIDS Antiviral Assay
measuredEndpoint: EC50

Exercise: Which EC50 is listed for CC1C/C(=C\c2ccc(OC(=O)C(C)(C)C)cc2)C(=O)/C(=C/c2ccc(OC(=O)C(C)(C)C)cc2)C1 (stereo unspecified) ?
Key: > 50.1 µM

Exercise: What EC50 value was documented for this compound, `C/C(CN1C(=O)c2ccccc2C1=O)=N\NS(=O)(=O)c1ccc2ccccc2c1` ?
Key: > 447 µM

Exercise: Tell me the measured EC50 of `COc1cc2c3c(c1)nnn3C(=O)CS2` , please.
Key: > 200 µM

Exercise: Entry COC1N(C2C=CC(CO)O2)C(=O)NC(=O)C1(C)Br (stereo unspecified) has what EC50?
Key: 100 µM

Exercise: Give its EC50 value. Item: `C/C(=N\NC(=O)c1ccncc1)c1cccc(F)c1`
Key: > 195 µM

Exercise: Could you share which EC50 value was measured for `Cc1c(C)c2c(c(N)c1C#N)C(=O)N(CCN1CCNCC1)C2=O` ?
Key: > 200 µM

====

Record form. Attribute: pIC50. Fill in for each entry.
System: CEM cells HIV-1 protection, formazan growth assay
Assay: NCI AIDS Antiviral Assay
Settings: measured here: growth of uninfected CEM cells
Reminder that pIC50 is minus the log10 of a molar concentration.

Exercise: Query pIC50 on CEM cells HIV-1 protection, formazan growth assay for `COC(=O)c1csc(-c2csc(CCNC(=O)OC(C)(C)C)n2)n1`
Key: 4.22

Exercise: Form field - read-out: pIC50; system: CEM cells HIV-1 protection, formazan growth assay; submitted item: CC1(C)OC(=O)N(c2ccccc2)C12C=Cc1cc([N+](=O)[O-])ccc1O2 (centres undefined)
Key: 4.21

Exercise: Find the measured pIC50: item `COc1cc(N=Nc2ccccc2)cc(/C=N/NC(N)=S)c1[O-].[CH2-]/[N+](=C\c1cc(N=Nc2ccccc2)cc(OC)c1[O-])NC(N)=S.[O]=[Mo+2]=[O].[O]=[Mo]=[O]` , target or system CEM cells HIV-1 protection, formazan growth assay.
Key: 5.28

Exercise: Please provide the recorded pIC50 for CCC[CH2][Sn]1([CH2]CCC)[O]CC(CN(C)Cc2ccccc2)[O]1 (centres undefined) , tested on CEM cells HIV-1 protection, formazan growth assay.
Key: 6.86

====

Tested on: CEM cells HIV-1 protection, formazan growth assay
Assay: NCI AIDS Antiviral Assay
pEC50: −log10 of the molar value.
measuredEndpoint: pEC50

Exercise: // pEC50 lookup, key: `COc1ccc(CCc2ccccc2CC(=O)O)cc1`
Key: < 3.03

Exercise: Param item = CC1(C)CC(=O)C2=C(C1)NC(SCC(=O)O)=C(C#N)C2c1ccc(Br)cc1 (stereo not given) ; retrieve measured pEC50.
Key: < 3.70

Exercise: Reported pEC50 for `N#CCN(Cc1ccccc1)[C@H]1CCC[C@]1(O)/C=C/c1ccc2c(c1)OCO2` : what is it?
Key: < 3.70

Exercise: Which measured pEC50 value corresponds to O=C1C2CCCCC2C(=O)N1n1c(Cc2ccc(Cl)cc2)n[nH]c1=O (stereo not given) ?
Key: < 3.70

Exercise: Please give the measured pEC50 for this molecule: CCOC(=O)C[N+]1(C)CCC(O)CC1 (stereo not given)
Key: < 3.70

Exercise: Quick check: pEC50 of `O=C(O)CN(CCOCCOCCN(CC(=O)O)CC(=O)O)CC(=O)O` ?
Key: < 4.02

Exercise: Data request, read-out pEC50, for COc1ccc(N2C(=O)C3CC(c4ccc(C)cc4)c4c([nH]c5ccccc45)C3C2=O)cc1 (stereo not given)
Key: < 5.62

Exercise: What does the data say about its pEC50? Entry: `CCCCCCCCCCCCCCCCN1C(=O)/C(=C\c2ccc(O)cc2)SC1=Nc1ccccc1`
Key: < 4.35

Exercise: Need pEC50 of COC(=O)/C(=N\Nc1nnc(C)n1N)C(C#N)c1ccc(Cl)cc1 (stereo not given) , thanks.
Key: < 3.14

Exercise: Item `CCOC(=O)C1=NN(c2ccc([N+](=O)[O-])cc2)[C@@]2(C)C[C@]3(c4ccccc4)N(c4ccc([N+](=O)[O-])cc4)N=C(C(=O)OCC)N3c3ccccc3N12` has what recorded pEC50?
Key: < 3.70
